The measurements presented in this section are drawn from ChEMBL document CHEMBL4145688.

Experiment: Permeability from basolateral to apical side in human Caco2 cells
Format: ADME, cell-based
Details: Caco-2
value-type: permeability

CCS(=O)(=O)c1ccc(CC(=O)Nc2cc(-c3cc(C#N)cnc3OC)cs2)cc1 | 17.1 ×10⁻⁶ cm/s
CCS(=O)(=O)c1ccc(CC(=O)Nc2cc(-c3cccnc3Oc3ccc(OC(F)(F)F)cc3)cs2)cc1 | Impermeable
CCS(=O)(=O)c1ccc(CC(=O)Nc2cc(-c3cc(C#N)cnc3OCC(F)(F)F)cs2)cc1 | Impermeable
CCS(=O)(=O)c1ccc(CC(=O)Nc2cc(-c3cccnc3OCc3ccc(OC(F)(F)F)cc3)cs2)cc1 | Impermeable

* * *

Assay: Permeability from apical to basolateral side in human Caco2 cells
Assay type: ADME, cell-based
Conditions: Caco-2, read-out: permeability
value-type: Papp A→B

Some molecules with known Papp A→B results, for comparison:
CCS(=O)(=O)c1ccc([C@@H](NC(C)=O)C(=O)Nc2cc(-c3cccnc3OCc3ccc(OC(F)(F)F)cc3)cs2)cc1 | < 0.001 ×10⁻⁶ cm/s
CNS(=O)(=O)c1ccc(CC(=O)Nc2cc(-c3cc(C#N)cnc3OC)cs2)cc1 | 0.65 ×10⁻⁶ cm/s
CCS(=O)(=O)c1ccc(CC(=O)Nc2cc(-c3cc(C#N)ccc3OC)cs2)cc1 | 1.6 ×10⁻⁶ cm/s

Given CCS(=O)(=O)c1ccc(CC(=O)Nc2cc(-c3cc(C#N)cc(F)c3OC)cs2)cc1 , state its recorded Papp A→B. 1.8 ×10⁻⁶ cm/s

Can you check CCS(=O)(=O)c1ccc(CC(=O)Nc2cc(-c3cccc(Cl)c3)c(C(=O)c3ccccc3Cl)s2)cc1 next? < 0.001 ×10⁻⁶ cm/s

Can you check CCS(=O)(=O)c1ccc(C(NC(C)=O)C(=O)Nc2cc(-c3cc(C#N)cc(F)c3OC)cs2)cc1 (stereo unspecified) next? 0.3 ×10⁻⁶ cm/s

* * *

Form field: log10 of hepatocyte CLint (one value per entry).
Experiment: Intrinsic clearance in rat hepatocytes assessed per million cells
Format: ADME, cell-based, Hepatocyte
Details: read-out: CLH
Friendly reminder: values = log10 of hepatocyte CLint, unit µL/min/1e6 cells.

Some molecules with known log10 of hepatocyte CLint results, for comparison:
CCS(=O)(=O)c1ccc(C(NC(C)=O)C(=O)Nc2cc(-c3cc(C#N)cnc3OC)cs2)cc1 (stereo unspecified) | 0.60
CCS(=O)(=O)c1ccc(C(NC(C)=O)C(=O)Nc2cc(-c3cccnc3Oc3ccc(C#N)cc3)cs2)cc1 (stereo unspecified) | 1.02

Given CCS(=O)(=O)c1ccc(CC(=O)Nc2cc(-c3cccnc3Oc3ccc(C#N)cc3)cs2)cc1 , state its recorded log10 of hepatocyte CLint. 1.45

Can you check CCS(=O)(=O)c1ccc(CC(=O)Nc2cc(-c3cccnc3OCCCc3ccccc3)cs2)cc1 next? 2.02

Can you check CCCOc1ncccc1-c1csc(NC(=O)Cc2ccc(S(=O)(=O)CC)cc2)c1 next? 1.90

Can you check CCS(=O)(=O)c1ccc(CC(=O)Nc2cc(-c3cccnc3OC)cs2)cc1 next? 1.11

Can you check CCS(=O)(=O)c1ccc(CC(=O)Nc2cc(-c3cccnc3OCc3ccc(C#N)cc3)cs2)cc1 next? 2.46

Can you check CCS(=O)(=O)c1ccc(CC(=O)Nc2cc(-c3cccnc3OCC(F)(F)F)cs2)cc1 next? 1.23

Can you check CCS(=O)(=O)c1ccc(CC(=O)Nc2cc(-c3cccnc3OC/C=C/c3ccccc3)cs2)cc1 next? 1.65

Can you check CCS(=O)(=O)c1ccc(CC(=O)Nc2cc(-c3cccnc3OCc3ccc(OC(F)(F)F)cc3)cs2)cc1 next? 1.60

Can you check CCS(=O)(=O)c1ccc(C(NC(C)=O)C(=O)Nc2cc(-c3cccnc3OCc3ccc(OC(F)(F)F)cc3)cs2)cc1 (stereo unspecified) next? 0.96

Can you check CCS(=O)(=O)c1ccc([C@H](NC(C)=O)C(=O)Nc2cc(-c3cccnc3OCc3ccc(OC(F)(F)F)cc3)cs2)cc1 next? 1.26

Can you check CCS(=O)(=O)c1ccc(CC(=O)Nc2cc(-c3cc(C#N)cc(F)c3OC)cs2)cc1 next? 1.05

Can you check CCS(=O)(=O)c1ccc(CC(=O)Nc2cc(-c3cccnc3Oc3ccc(OC(F)(F)F)cc3)cs2)cc1 next? 1.30

Can you check CCS(=O)(=O)c1ccc(CC(=O)Nc2cc(-c3cccnc3OCc3ccccc3)cs2)cc1 next? 2.11

Can you check CCOc1ncccc1-c1csc(NC(=O)Cc2ccc(S(=O)(=O)CC)cc2)c1 next? 1.45
